Data provenance: patent US20230002496A1

Target: T1, human GM-CSFRα, full length on cells (human, UniProt P15509 23-400)
T1 sequence: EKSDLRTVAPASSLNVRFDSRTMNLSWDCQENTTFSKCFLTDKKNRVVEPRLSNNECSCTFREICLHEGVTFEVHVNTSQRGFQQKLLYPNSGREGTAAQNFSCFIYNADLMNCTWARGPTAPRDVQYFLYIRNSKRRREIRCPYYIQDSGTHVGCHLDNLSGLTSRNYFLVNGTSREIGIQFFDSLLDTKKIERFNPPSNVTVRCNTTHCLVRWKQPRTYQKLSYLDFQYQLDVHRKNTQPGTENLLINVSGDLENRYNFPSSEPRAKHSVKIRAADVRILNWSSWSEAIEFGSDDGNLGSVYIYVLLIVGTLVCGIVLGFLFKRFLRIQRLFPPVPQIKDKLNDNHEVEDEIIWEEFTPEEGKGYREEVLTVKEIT
Assay: cell-based or functional assay
Just a reminder that ties go to not met: only IC50, TF-1 cell proliferation strictly below 1 µg/mL counts as met.

| BINDER | CLASS_ASSIGNMENT |
| --- | --- |
| E35-scFv LG50N (scFv, V domains shown) VH: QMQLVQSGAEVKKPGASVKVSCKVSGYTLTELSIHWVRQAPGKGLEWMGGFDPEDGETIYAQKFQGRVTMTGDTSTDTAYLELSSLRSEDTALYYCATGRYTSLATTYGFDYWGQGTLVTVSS VL: EIVMTQSPATLSLSPGERATLSCRASQSVSSYLAWYQQKPGQAPRLLIYNASSRATGIPDRFSGSGSGTDFTLTISRLEPEDFAVYYCQQYDNWPYTFGQGTKLEIK | not met |
| E35-scFv LS30M (scFv, V domains shown) VH: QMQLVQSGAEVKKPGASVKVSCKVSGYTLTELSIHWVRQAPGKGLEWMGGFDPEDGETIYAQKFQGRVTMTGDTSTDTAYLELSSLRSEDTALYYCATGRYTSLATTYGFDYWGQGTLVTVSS VL: EIVMTQSPATLSLSPGERATLSCRASQSVMSYLAWYQQKPGQAPRLLIYGASSRATGIPDRFSGSGSGTDFTLTISRLEPEDFAVYYCQQYDNWPYTFGQGTKLEIK | met |
| E35-scFv LY32E (scFv, V domains shown) VH: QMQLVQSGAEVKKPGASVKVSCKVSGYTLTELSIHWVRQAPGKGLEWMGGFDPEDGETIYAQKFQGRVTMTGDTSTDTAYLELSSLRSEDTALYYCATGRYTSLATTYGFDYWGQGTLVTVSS VL: EIVMTQSPATLSLSPGERATLSCRASQSVSSELAWYQQKPGQAPRLLIYGASSRATGIPDRFSGSGSGTDFTLTISRLEPEDFAVYYCQQYDNWPYTFGQGTKLEIK | not met |
| E35-scFv LG50I (scFv, V domains shown) VH: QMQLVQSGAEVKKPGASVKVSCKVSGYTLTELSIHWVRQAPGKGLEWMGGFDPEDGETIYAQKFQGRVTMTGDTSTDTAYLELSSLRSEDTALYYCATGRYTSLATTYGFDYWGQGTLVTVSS VL: EIVMTQSPATLSLSPGERATLSCRASQSVSSYLAWYQQKPGQAPRLLIYIASSRATGIPDRFSGSGSGTDFTLTISRLEPEDFAVYYCQQYDNWPYTFGQGTKLEIK | not met |

Turning now to a further record.
For this binder, is IC50, TF-1 cell proliferation lower than 1 µg/mL? E35-scFv LG50V (scFv, V domains shown) VH: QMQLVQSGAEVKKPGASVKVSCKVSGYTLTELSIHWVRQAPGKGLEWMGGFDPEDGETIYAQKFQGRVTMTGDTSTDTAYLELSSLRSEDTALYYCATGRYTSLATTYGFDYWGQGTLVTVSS VL: EIVMTQSPATLSLSPGERATLSCRASQSVSSYLAWYQQKPGQAPRLLIYVASSRATGIPDRFSGSGSGTDFTLTISRLEPEDFAVYYCQQYDNWPYTFGQGTKLEIK not met
